target: T1, MHC class I molecule B*0702 (biotin (bound to streptavidin-coated plate)); experiment: iTopia peptide binding assay
T1 construct: iTopia monomer stripped of placeholder peptide and b2M, then reconstituted with test peptide and fresh b2M; also called B7; HLA-B7
Give measured binding, % of positive control peptide for each item. Keep answers brief.

Would you please look over these solved cases?
binder	binding, % of positive control peptide
VQGKDRLTC [5T4 9-mer peptide 158 (VQGKDRLTC)]	6 % of positive control
HLESLHLED [5T4 9-mer peptide 130 (HLESLHLED)]	2 % of positive control
DLDCDPILP [5T4 9-mer peptide 171 (DLDCDPILP)]	3 % of positive control
SADLDCDPI [5T4 9-mer peptide 170 (SADLDCDPI)]	3 % of positive control
IRVFLDNNP [5T4 9-mer peptide 144 (IRVFLDNNP)]	5 % of positive control
PRLTNLSSN [5T4 9-mer peptide 205 (PRLTNLSSN)]	11 % of positive control
YHYRYEINA [5T4 9-mer peptide 200 (YHYRYEINA)]	5 % of positive control
GKDRLTCAY [5T4 9-mer peptide 159 (GKDRLTCAY)]	4 % of positive control

// for each binder in input: emit binding, % of positive control peptide
1. AELQGLPHI [5T4 9-mer peptide 140 (AELQGLPHI)]
2. LDNNPWVCD [5T4 9-mer peptide 146 (LDNNPWVCD)]
3. ETEVVQGKD [5T4 9-mer peptide 156 (ETEVVQGKD)]
4. CAYPEKMRN [5T4 9-mer peptide 162 (CAYPEKMRN)]
5. IFLLVLYLN [5T4 9-mer peptide 185 (IFLLVLYLN)]
6. MRNRVLLEL [5T4 9-mer peptide 165 (MRNRVLLEL)]
7. ESLHLEDNA [5T4 9-mer peptide 131 (ESLHLEDNA)]

1. 0 % of positive control
2. 3 % of positive control
3. 1 % of positive control
4. 3 % of positive control
5. 2 % of positive control
6. 13 % of positive control
7. 0 % of positive control

Request the reported binding, % of positive control peptide associated with SFRNLTHLE [5T4 9-mer peptide 127 (SFRNLTHLE)]
0 % of positive control
